Biological target: GST-Nv-NF-kB (Ser allele) (Nematostella vectensis, UniProt A7UNT2 2-411)
Sequence: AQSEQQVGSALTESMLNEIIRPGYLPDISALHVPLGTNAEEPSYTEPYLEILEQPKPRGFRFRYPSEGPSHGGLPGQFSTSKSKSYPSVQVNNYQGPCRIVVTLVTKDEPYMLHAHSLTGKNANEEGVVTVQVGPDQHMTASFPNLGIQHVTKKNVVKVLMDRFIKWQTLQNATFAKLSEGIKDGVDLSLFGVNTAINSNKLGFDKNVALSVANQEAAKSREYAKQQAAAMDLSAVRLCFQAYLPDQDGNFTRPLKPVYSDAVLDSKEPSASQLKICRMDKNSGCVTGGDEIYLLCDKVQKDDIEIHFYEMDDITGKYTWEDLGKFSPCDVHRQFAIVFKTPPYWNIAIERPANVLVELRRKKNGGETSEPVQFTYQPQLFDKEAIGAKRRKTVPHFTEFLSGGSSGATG
Assay: protein-binding microarray (PBM); PBM: ~300 nM protein, 6 mM HEPES pH 7.8, 80 mM KCl, 0.5 mM EDTA, 0.5 mM EGTA, 6% glycerol, 35 ng/ul poly-dIdC, 1% milk, 1 h, room temperature; Ap Aiptasia and Nv Nematostella (sea anemones) / Co Capsaspora / Aq Amphimedon (sponge) / Dm Drosophila / Hu human; RHD is the Rel homology domain; high values mean tight binding
Conditions: dsDNA, one strand shown
Decision: binding signal beneath 6 z-score gives Condition met; binding signal meeting or exceeding 6 z-score gives Condition not met.

[[record]]
constructsequence = "CCGATTAACATCAGAAAAACCCCTGATGTTAATCGGGTCTTGATTCGCTTGACGCTGCTG"
cat = "Condition not met"

[[record]]
constructsequence = "CCGATTAACATCAAGGGAAAATATGATGTTAATCGGGTCTTGATTCGCTTGACGCTGCTG"
cat = "Condition not met"

[[record]]
constructsequence = "CCGATTAACATCAAAGTGGGAAATGATGTTAATCGGGTCTTGATTCGCTTGACGCTGCTG"
cat = "Condition met"

[[record]]
constructsequence = "CCGATTAACATCAGAAATTTCCCTGATGTTAATCGGGTCTTGATTCGCTTGACGCTGCTG"
cat = "Condition not met"

[[record]]
constructsequence = "CCGATTAACATCAAATTTCCCGTTGATGTTAATCGGGTCTTGATTCGCTTGACGCTGCTG"
cat = "Condition met"


## Task Does the reported binding signal of CCGATTAACATCAGGGTAAGTACTGATGTTAATCGGGTCTTGATTCGCTTGACGCTGCTG stay below 6 z-score?
## Result Condition met

## Task Consider CCGATTAACATCAAATTTCCCTATGATGTTAATCGGGTCTTGATTCGCTTGACGCTGCTG . Does its binding signal lie strictly below 6 z-score?
## Result Condition not met
